TrkA (Homo sapiens (Human)) data, read-out IC50
Measurement kind: IC50

INSERT INTO results (molecule, system_under_test, meas_value) VALUES
  ('COCCN1C[C@@H](NC(=O)Nc2c(C)c(OC[C@H](O)C(F)(F)F)nn2-c2ccccc2)[C@H](c2cc(F)cc(F)c2)C1', 'TrkA (Homo sapiens (Human))', '< 100 nM'),
  ('COCCN1C[C@@H](NC(=O)Nc2c(Br)c(C3CCOCC3)nn2-c2ccccc2)[C@H](c2ccc(F)c(F)c2)C1', 'TrkA (Homo sapiens (Human))', '< 100 nM'),
  ('COCCN1C[C@@H](NC(=O)Nc2cc(-c3ccc(F)cc3)nn2C)[C@H](c2cc(F)ccc2F)C1', 'TrkA (Homo sapiens (Human))', '< 100 nM'),
  ('COCCOc1nn(-c2ccccc2)c(NC(=O)N[C@@H]2CN(CC#N)C[C@H]2c2ccc(F)c(F)c2)c1C', 'TrkA (Homo sapiens (Human))', '100 to 1000 nM'),
  ('COCCN1C[C@@H](NC(=O)Nc2c(Cl)c(C)nn2-c2ccccc2)[C@H](c2cncc(F)c2)C1', 'TrkA (Homo sapiens (Human))', '< 100 nM'),
  ('COCCN1C[C@@H](NC(=O)Nc2cc(C3CC3)nn2-c2ccccc2)[C@H](c2ccccc2)C1 (relative stereo)', 'TrkA (Homo sapiens (Human))', '< 100 nM'),
  ('COCCN1C[C@@H](NC(=O)Nc2c(C)c(Br)nn2-c2ccccc2)[C@H](c2ccc(F)cc2)C1', 'TrkA (Homo sapiens (Human))', '< 100 nM');

* * *

UniProt P04629 data, read-out pIC50
pIC50: −log10 of the molar value.
Measurement kind: pIC50

INSERT INTO measurements (compound, meas_value) VALUES
  ('COCCN1C[C@@H](NC(=O)Nc2c(C)c(-c3cnc(N(C)C)nc3)nn2-c2ccccc2)[C@H](c2ccc(F)c(F)c2)C1', '> 7.00'),
  ('COCCN1C[C@@H](NC(=O)Nc2c(C)c(-c3cnn(S(C)(=O)=O)c3)nn2-c2ccccc2)[C@H](c2ccc(F)c(F)c2)C1', '> 7.00'),
  ('CNC(=O)c1nn(-c2ccccc2)c(NC(=O)N[C@@H]2CN(CCOC)C[C@H]2c2ccc(Cl)c(F)c2)c1C (relative stereo)', '> 7.00');

* * *

Here the recorded IC50 is given for each entry.
System under test: TrkA (Homo sapiens (Human))
Where a name gives a salt, the structure may show the parent alone.
Measurement kind: IC50

INSERT INTO results (compound, measurement_kind, meas_value) VALUES
  ('COCCN1C[C@@H](NC(=O)Nc2c(Cl)c(C)nn2-c2ccccc2)[C@H](c2ccc(F)c(F)c2)C1 [Example 64]', 'IC50', '< 100 nM'),
  ('CCOc1nn(-c2ccccc2)c(NC(=O)N[C@@H]2CN(C(C)COC)C[C@H]2c2ccc(F)c(F)c2)c1C (stereo partly drawn) [Example 255]', 'IC50', '< 100 nM'),
  ('Cc1c(OCCF)nn(-c2ccccc2)c1NC(=O)N[C@H]1CN(CC(F)(F)F)C[C@@H]1c1ccccc1 [Example 266]', 'IC50', '< 100 nM'),
  ('O=C(Nc1c2c(nn1-c1ccccc1)CCC2)N[C@@H]1CN(CC(F)(F)F)C[C@H]1c1ccccn1 (relative stereo) [Example 209]', 'IC50', '100 to 1000 nM'),
  ('COCCN1C[C@@H](NC(=O)Nc2c3c(nn2-c2ccccc2)CSC3)[C@H](c2ccccc2)C1 [Example 82]', 'IC50', '< 100 nM'),
  ('CCOc1nn(-c2ccccc2)c(NC(=O)N[C@@H]2CN(c3ccc(F)cc3)C[C@H]2c2ccccc2)c1C [Example 235]', 'IC50', '100 to 1000 nM'),
  ('COCCN1C[C@@H](NC(=O)Nc2c3c(nn2-c2ccccn2)CCC3)[C@H](c2ccccc2)C1 (relative stereo) [Example 35]', 'IC50', '1000 to 10000 nM'),
  ('COCCc1nn(-c2ccccc2)c(NC(=O)N[C@@H]2CN(CCOC)C[C@H]2c2ccc(F)c(F)c2)c1C [Example 134]', 'IC50', '< 100 nM'),
  ('COCCN1C[C@@H](NC(=O)Nc2c(C)c(-c3cn[nH]c3)nn2-c2ccccc2)[C@H](c2ccc(F)c(F)c2)C1 [Example 447]', 'IC50', '< 100 nM'),
  ('COCCN1C[C@@H](NC(=O)Nc2c(-c3ccccc3)nn(CC(F)(F)F)c2C)[C@H](c2ccc(F)c(F)c2)C1 [Example 643]', 'IC50', '< 100 nM'),
  ('COCCN1C[C@@H](NC(=O)Nc2c(C#N)c(=O)[nH]n2-c2ccccc2)[C@H](c2ccc(F)c(F)c2)C1 [Example 618]', 'IC50', '< 100 nM'),
  ('CCOc1nn(C)c(NC(=O)N[C@@H]2CN(CCOC)C[C@H]2c2ccc(F)c(F)c2)c1-c1ccccc1 [Example 157]', 'IC50', '< 100 nM'),
  ('COCCN1C[C@@H](NC(=O)Nc2c(C)c(OCC(C)(C)O)nn2-c2ccccc2)[C@H](c2cc(F)c(F)c(F)c2)C1 [Example 401]', 'IC50', '< 100 nM'),
  ('COCCN1C[C@@H](NC(=O)Nc2c(C)c(OC[C@@H](O)COC)nn2-c2ccccc2)[C@H](c2cc(F)c(F)c(F)c2)C1 [Example 564]', 'IC50', '< 100 nM'),
  ('COCCN1C[C@@H](NC(=N)Nc2c(Br)c(C)nn2-c2ccccc2)[C@H](c2ccc(F)c(F)c2)C1 [Example 629, dihydrochloride]', 'IC50', '1000 to 10000 nM'),
  ('COCCOc1ccc(-c2cc(NC(=O)N[C@@H]3CN(CCOC)C[C@H]3c3ccc(F)c(F)c3)n(C)n2)cc1 [Example 130]', 'IC50', '< 100 nM'),
  ('COCCN1C[C@@H](NC(=O)Nc2c(C)c([C@H]3CCCN3S(C)(=O)=O)nn2-c2ccccc2)[C@H](c2ccc(F)c(F)c2)C1 [Example 595]', 'IC50', '< 100 nM'),
  ('COCCN1C[C@@H](NC(=O)Nc2c(C)c(OCC3COC3)nn2-c2ccccc2)[C@H](c2ccc(F)c(F)c2)C1 [Example 74]', 'IC50', '< 100 nM'),
  ('COCCN1C[C@@H](NC(=O)Nc2c(C)c(C3CC3)nn2-c2ccccc2)[C@H](c2ccc(F)cc2)C1 [Example 534]', 'IC50', '< 100 nM'),
  ('COCCN1C[C@@H](NC(=O)Nc2c(C)c(-c3cnc(C)cn3)nn2C)[C@H](c2ccc(F)c(F)c2)C1 [Example 153]', 'IC50', '100 to 1000 nM'),
  ('COc1cccc([C@@H]2CN(CC(F)(F)F)C[C@H]2NC(=O)Nc2c3c(nn2-c2ccccc2)CCC3)c1 (relative stereo) [Example 207]', 'IC50', '100 to 1000 nM'),
  ('COCCN1C[C@@H](NC(=O)Nc2c(C)c(-c3cnc(N)nc3)nn2-c2ccccc2)[C@H](c2ccc(F)c(F)c2)C1 [Example 512]', 'IC50', '< 100 nM'),
  ('COCCN1C[C@@H](NC(=O)Nc2c(C)c(C)nn2-c2ccccc2)[C@H](c2cncc(Cl)c2)C1 (relative stereo) [Example 343]', 'IC50', '< 100 nM'),
  ('CCOc1nn(-c2ccccc2)c(NC(=O)N[C@@H]2CN(C(COC)COC)C[C@H]2c2ccc(F)c(F)c2)c1C [Example 254]', 'IC50', '< 100 nM'),
  ('COCCN1C[C@@H](NC(=O)Nc2c3c(nn2-c2ccccc2)CCC3)[C@H](c2cc(F)cc(F)c2)C1 [Example 84]', 'IC50', '< 100 nM'),
  ('COCCN1C[C@@H](NC(=O)Nc2c(C)c(OC[C@H](COC)O[Si](C)(C)C(C)(C)C)nn2-c2ccccc2)[C@H](c2ccc(F)c(F)c2)C1 [Example 402]', 'IC50', '100 to 1000 nM'),
  ('COCCN1C[C@@H](NC(=O)Nc2c(C)c(OCCF)nn2-c2ccccc2)[C@H](c2ccc(F)c(F)c2)C1 [Example 144]', 'IC50', '< 100 nM');

* * *

System under test: TrkA (Homo sapiens (Human), UniProt P04629)
Sequence (P04629 33-796): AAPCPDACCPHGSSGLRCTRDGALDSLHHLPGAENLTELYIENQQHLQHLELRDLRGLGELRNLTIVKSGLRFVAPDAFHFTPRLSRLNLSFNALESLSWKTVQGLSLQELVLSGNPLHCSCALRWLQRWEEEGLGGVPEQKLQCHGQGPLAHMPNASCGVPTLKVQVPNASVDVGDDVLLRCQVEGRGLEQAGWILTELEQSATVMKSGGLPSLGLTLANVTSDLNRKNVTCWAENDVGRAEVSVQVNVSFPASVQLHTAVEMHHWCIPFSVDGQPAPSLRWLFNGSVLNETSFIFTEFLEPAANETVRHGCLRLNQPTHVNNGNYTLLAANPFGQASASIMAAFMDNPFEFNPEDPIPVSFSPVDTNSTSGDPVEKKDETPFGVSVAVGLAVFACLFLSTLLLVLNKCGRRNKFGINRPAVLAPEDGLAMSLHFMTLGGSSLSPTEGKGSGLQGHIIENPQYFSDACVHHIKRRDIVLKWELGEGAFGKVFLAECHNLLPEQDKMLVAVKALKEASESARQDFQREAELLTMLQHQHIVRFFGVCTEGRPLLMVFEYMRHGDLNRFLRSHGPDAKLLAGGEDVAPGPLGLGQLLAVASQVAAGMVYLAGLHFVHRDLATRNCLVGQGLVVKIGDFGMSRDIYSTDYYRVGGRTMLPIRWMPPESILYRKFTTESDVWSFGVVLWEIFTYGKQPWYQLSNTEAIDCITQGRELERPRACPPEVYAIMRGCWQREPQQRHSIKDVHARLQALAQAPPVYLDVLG
pIC50: −log10 of the molar value.
Measurement kind: pIC50

INSERT INTO measurements (molecule, meas_value) VALUES
  ('CCOc1nn(-c2ccccc2)c(NC(=O)N[C@@H]2CN(CCOC)C[C@H]2c2ccc(F)c(F)c2)c1C', '> 7.00'),
  ('COCCN1C[C@@H](NC(=O)Nc2c(C)c(-c3sc(C)nc3C)nn2-c2ccccc2)[C@H](c2ccc(F)c(F)c2)C1', '> 7.00'),
  ('CCOc1nn(-c2ccccc2)c(NC(=O)N[C@@H]2CN(c3ccnn3C)C[C@H]2c2cc(F)cc(F)c2)c1C', '6.00 to 7.00'),
  ('COCCN1C[C@@H](NC(=O)Nc2c(C)c(-c3cnn(CC4CC4)c3)nn2-c2ccccc2)[C@H](c2ccc(F)c(F)c2)C1', '> 7.00'),
  ('COCCN1C[C@@H](NC(=O)Nc2c(C)c(OC[C@@H](O)CO)nn2-c2ccccc2)[C@H](c2ccc(F)c(F)c2)C1', '> 7.00'),
  ('COCCN1C[C@@H](NC(=O)Nc2c3c(nn2-c2ccccc2)CCC3)[C@](F)(c2ccccc2)C1', '6.00 to 7.00'),
  ('COCCN1C[C@@H](NC(=O)Nc2c(C)c(CCO)nn2-c2ccccc2)[C@H](c2ccc(F)cc2)C1', '> 7.00'),
  ('COCCN1C[C@@H](NC(=O)Nc2c(C)c([C@H]3C[C@H](O)C3)nn2-c2ccccc2)[C@H](c2ccc(F)cc2)C1', '> 7.00'),
  ('COCCN1C[C@@H](NC(=O)Nc2c(C)c(OCCN3CCOCC3)nn2-c2ccccc2)[C@H](c2ccc(F)c(F)c2)C1', '> 7.00'),
  ('COCCN1C[C@@H](NC(=O)Nc2c(C(F)(F)F)c(OC)nn2-c2ccccc2)[C@H](c2ccc(F)c(F)c2)C1', '> 7.00'),
  ('COCCN1C[C@@H](NC(=O)Nc2c3c(nn2-c2ccc(F)cc2)CCC3)[C@H](c2ccccc2)C1 (relative stereo)', '> 7.00'),
  ('COCCN1C[C@@H](NC(=O)Nc2c(Cl)c(-c3cnn(C)c3)nn2-c2ccccc2)[C@H](c2cc(F)cc(F)c2)C1', '> 7.00'),
  ('CCc1c(OCC(C)(C)O)nn(-c2ccccc2)c1NC(=O)N[C@@H]1CN(CCOC)C[C@H]1c1ccc(F)c(F)c1', '> 7.00'),
  ('CCOc1nn(-c2ccccc2)c(NC(=O)N[C@@H]2CN(CC(C)O)C[C@H]2c2ccc(F)c(F)c2)c1C (some centres unmarked)', '6.00 to 7.00');
